- Target desc: Tyrosine-protein phosphatase non-receptor type 1 (Homo sapiens, UniProt P18031)
- Sequence (P18031 whole entry): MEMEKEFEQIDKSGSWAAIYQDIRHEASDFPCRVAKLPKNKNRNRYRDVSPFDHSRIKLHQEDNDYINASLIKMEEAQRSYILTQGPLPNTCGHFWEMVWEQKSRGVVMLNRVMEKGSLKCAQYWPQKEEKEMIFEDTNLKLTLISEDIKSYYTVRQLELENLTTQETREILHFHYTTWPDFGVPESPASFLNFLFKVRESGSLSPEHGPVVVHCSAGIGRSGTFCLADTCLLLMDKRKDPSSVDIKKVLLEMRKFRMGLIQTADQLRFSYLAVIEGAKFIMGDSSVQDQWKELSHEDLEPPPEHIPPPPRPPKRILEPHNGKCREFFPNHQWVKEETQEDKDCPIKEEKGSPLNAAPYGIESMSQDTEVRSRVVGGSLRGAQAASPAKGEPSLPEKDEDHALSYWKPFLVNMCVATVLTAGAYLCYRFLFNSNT
- Run description: Inhibition of PTP1B by colorimetric assay
Attribute measured: IC50 (µM)

Some solved cases for reference:
> print(dat)
                            chemical.smiles  result
1  O=[N+]([O-])c1ccc(/C=C/c2ccc(O)c(O)c2)c([N+](=O)[O-])c1     190
2  COC(=O)/C=C/c1ccc(/C=C/c2ccc(O)c(O)c2)cc1    14.9

(a) CCCCCCCCCCCCCCCC(=O)C1=C(O)[C@@H](CO)OC1=O
(b) COC(=O)c1ccc(/C=C/c2ccc(O)c(O)c2)cc1
Compare reported IC50 values for a and b . Which is lower? Label of pick, please.
b
(b: 25.6 µM, a: 45 µM)

(1) OCc1ccc(/C=C\c2ccc(O)c(O)c2)cc1
(2) OCc1ccc(/C=C/c2ccc(O)c(O)c2)cc1
Compare reported IC50 values for 1 and 2 . Which is lower? Label of pick, please.
1
(1: 138 µM, 2: 260 µM)
